tested on: SK-OV-3 ovarian; test: NCI-60 one-dose screen, 48 h (100 = growth as untreated, 0 = no growth, -100 = all killed); conditions: 10 µM unless noted
The panel holds about 83,000 compounds, 20% with a hit somewhere; the sample as a whole holds those more often.
Please provide measured growth for the entries that follow.
Give bare numbers, in %.

Qu. Name the recorded growth for `COc1cc(NC(=O)Nc2cnc(Nc3ccc(N4CCOCC4)cc3)nc2Oc2ccc(C(F)(F)F)cc2)cc(OC)c1` .
Ans. 104

Qu. Next molecule up: `CC[C@]12C=CCN3CC[C@@]4(c5cc(NC(=O)CCC(=O)O[C@H]6CC[C@H]7[C@@H]8CC[C@H]9CC(=O)CC[C@]9(C)[C@H]8CC[C@]67C)c(OC)cc5N(C)[C@H]4[C@@](O)(C(=O)OC)[C@@H]1OC(C)=O)[C@@H]32`
Ans. 98.6

Qu. Next molecule up: `COC(=O)CCc1cc(O)c2c(c1)[C@@H](C(=O)OC)[C@H](c1ccc(O)c(O)c1)O2`
Ans. 97.4

Qu. Next molecule up: `C[C@@H]1C(=O)[C@@H]2C[C@@H](O)[C@@H](O)C[C@]2(C)[C@H]2CC[C@@]3(C)C(=C12)CC[C@@H]3[C@@](C)(O)[C@H](O)CCC(C)(C)O`
Ans. 103

Qu. Next molecule up: `c1ccc(-c2n(Cc3ccc4ccccc4n3)cc[n+]2Cc2ccc3ccccc3n2)cc1`
Ans. 48.9

Qu. Next molecule up: `Cc1c(Cl)cccc1NC(=O)c1sc2nc3c(cc2c1N)COCC3`
Ans. 26.5

Hi, could you look up growth for each item in my list?
1. COc1ccc(OCC(=O)OC(C)C)cc1
2. C=C1C(=O)O[C@H]2[C@H]1CC/C(COC(=O)c1cccnc1)=C\CC[C@@]1(C)O[C@@H]21

Ans.
112
86.1

----------
system: NCI-H522 lung; experiment: NCI-60 one-dose screen, 48 h; conditions: 10 µM unless noted
About 83,000 compounds went through this panel and 20% of them were active in at least one assay; those are over-represented in the sample as a whole. Calls of active or inactive are those of the source. The calls were made as follows: active = growth percent below 10; inactive = the rest.
Reply using exactly one outcome from t for active, f for inactive

Qu. Tell me the recorded outcome of this test for `COc1ccc(-c2cn(-c3ccc(Cl)cc3)c(=S)[nH]2)cc1OC` .
Ans. f

Qu. Next compound up: `NC(=O)CN1C(=O)c2ccccc2C1=O`
Ans. f

Qu. Next compound up: `COc1cc(NC(=O)Nc2cnc(Nc3ccc(N4CCOCC4)cc3)nc2Oc2ccc(F)cc2)cc(OC)c1`
Ans. f

Pending compound:
Qu. Tell me the recorded outcome of this test for `CCOC(=O)c1c(C)nc2c(c1N)CC(=O)N2CCc1ccccc1` .
Ans. t

----------
test system: DU-145 prostate; assay: NCI-60 one-dose screen, 48 h (100 = growth as untreated, 0 = no growth, -100 = all killed); settings: 10 µM unless noted
About 83,000 compounds went through this panel and 20% of them were active in at least one assay; those are over-represented in the sample as a whole.
PROPERTY LABEL: growth (%)
Numbers only, in %.

For orientation, consider the following solved cases.
Qu. Name the recorded growth for `CCOC(=O)CC[C@H](NC(=O)c1ccc(NC)c2ccccc12)C(=O)OCC` .
Ans. 104

Qu. Next compound up: O=C1NC(c2ccc(F)cc2)N=C2C(c3ccccc3)=NOC12 (centres undefined)
Ans. 110

Qu. Next compound up: COc1ccc2c(c1)Oc1nc(N)c(C#N)c(N)c1C2Sc1ccc(O)cc1 (centres undefined)
Ans. 105

Qu. Next compound up: CC1(C)Cc2c(Br)c(Br)c(Br)c(OCC(O)CN3CCOCC3)c2O1 (centres undefined)
Ans. 106

Qu. Next compound up: `COc1cc([C@H](C)c2ccc3ccccc3c2)cc(OC)c1OC`
Ans. 17.6

Qu. Next compound up: `CSc1nc(-c2ccc(F)cc2)c(C#N)c(N2CCOCC2)n1`
Ans. 101

Qu. Next compound up: `COc1cc(/C=C/C(=O)/C=C/c2cc3ccc(Cl)cc3[nH]c2=O)ccc1O`
Ans. 45.9

Qu. Next compound up: `Cc1ccc(C(=O)O)o1`
Ans. 107

Hi, could you look up growth for each item in my list?
1. NS(=O)(=O)c1ccc(-n2nc(-c3ccccc3)ccc2=O)cc1
2. CN1CCN(S(=O)(=O)O[C@@H]2C(=O)N(c3cc4c5ccccc5ccc4c4ccccc34)[C@H]2c2ccc(F)cn2)CC1
3. CCCCc1n(Cc2ccc3ccccc3c2)c2ccccc2[n+]1Cc1ccc2ccccc2c1
4. O=C1CC23OC4ON=C(Br)C4C2C(O)c2ccccc2N13 (centres undefined)

Ans.
1. 109
2. 94.4
3. -93.1
4. 105

Hi, could you look up growth for each item in my list?
1. C=CCn1c(CN2CCN(c3cc4c(cc3F)c(=O)c(C(=O)O)cn4C3CC3)CC2)n[nH]c1=S
2. COc1ccccc1-c1ccc2nc(NC(=O)Nc3cc(C(F)(F)F)cc(C(F)(F)F)c3)sc2c1
3. CC[C@]12C=CCN3CC[C@@]4(c5cc(NC(=O)CCC(=O)O[C@H]6CC[C@H]7[C@@H]8CC[C@H]9CC(=O)CC[C@]9(C)[C@H]8CC[C@]67C)c(OC)cc5N(C)[C@H]4[C@@](O)(C(=O)OC)[C@@H]1OC(C)=O)[C@@H]32
4. C#Cc1ccccc1NC(=O)c1sc2nc3c(cc2c1N)CCCCCC3
5. O=C(CCCC(=O)Nc1ccc(-n2nnc3cc(Cl)c(Cl)cc32)cc1)Nc1ccc(-n2nnc3cc(Cl)c(Cl)cc32)cc1
6. O=C1Nc2ccc(Cl)cc2/C1=N/c1nc(-c2ccc(F)cc2)cs1

Ans.
1. 103
2. 19.5
3. 86.8
4. 50
5. 33.6
6. 69.8

Qu. Name the recorded growth for `CC1(C)[C@@H](O)CC[C@]2(C)[C@H]3CC[C@@H]4[C@H]5[C@H](c6cn(-c7ccccc7)nn6)CC[C@]5(CO)CC[C@@]4(C)[C@]3(C)CC[C@@H]12` .
Ans. 95.4

----------
tested on: U251 CNS; test: NCI-60 one-dose screen, 48 h (100 = growth as untreated, 0 = no growth, -100 = all killed); details: 10 µM unless noted
Compounds without any hit were thinned out: in the full panel of roughly 83,000, 20% have a hit.
# cutoff 20% applies to growth; >= gives yes (1), < gives no (0)

Qu. Determine whether measured growth meets or exceeds 20% for `C=C(C)[C@@H]1CCC=C2CC[C@]3(C)[C@H](CC[C@@H]4[C@@]5(C)CCCNC(C)(C)[C@@H]5CC[C@]43C)[C@H]21`
Ans. no (0)

Qu. Next compound up: `CC(=O)Oc1ccc(O)cc1`
Ans. yes (1)

Qu. Next compound up: `C/C(=N/Nc1nc2ccccc2n1C)c1ccccn1`
Ans. no (0)

Qu. Next compound up: `Nc1c(C(=O)Nc2ccccn2)sc2nc3c(cc12)CCCCC3`
Ans. yes (1)

Qu. Next compound up: `C=C(C)[C@@H]1CC[C@]2(C(=O)OCCOCCOCC[P+](c3ccccc3)(c3ccccc3)c3ccccc3)CC[C@]3(C)[C@H](CC[C@@H]4[C@@]5(C)CC[C@H](OC(=O)C(Cl)Cl)C(C)(C)[C@@H]5CC[C@]43C)[C@@H]12`
Ans. no (0)

Pending compound:
Qu. Determine whether measured growth meets or exceeds 20% for `CCOCc1nc2ccccc2c(=O)[nH]1`
Ans. yes (1)

----------
system: BT-549 breast; test: NCI-60 one-dose screen, 48 h (100 = growth as untreated, 0 = no growth, -100 = all killed); details: 10 µM unless noted
This is part of a sample that, as a whole, favours compounds with a hit. Of some 83,000 tested, about 20% had one in any assay.
Threshold check on growth: strictly below 90% is 1 (yes); on or above 90% is 0 (no).

Example results:
Qu. For `CCOC(=O)c1c(C)nc2c(c1N)/C(=C/c1cccs1)C(=O)N2Cc1ccccc1` , is the recorded growth below the cut-off of 90%?
Ans. 1 (yes)

Qu. Next molecule up: `Cn1c2ccccc2c2c(OC(=O)c3ccccc3)c3c(nc21)-c1ccccc1C3`
Ans. 0 (no)

Qu. Next molecule up: `CNc1cccc2c1C(=O)c1cccc(N)c1C2=O`
Ans. 1 (yes)

Qu. Next molecule up: `COC(=O)[C@]1(C)CCC[C@]2(C)[C@H]3C[C@H]4C(C(C)C)=C[C@]3(CC[C@H]21)[C@@H]1C(=O)N(CCC#N)C(=O)[C@@H]14`
Ans. 1 (yes)

Qu. Next molecule up: `CCOCc1cc(C(C)(C)C)ccc1O`
Ans. 0 (no)

Qu. Next molecule up: CC(=O)ON1CCCC(P(=O)(OCOC(=O)C(C)(C)C)OCOC(=O)C(C)(C)C)C1=O (stereo not given)
Ans. 1 (yes)

Qu. Next molecule up: O=C(Nc1ccc(N=Cc2ccccc2O)cc1)NC1C=c2ccccc2=CC1 (stereo not given)
Ans. 1 (yes)

Qu. Next molecule up: `Clc1ccc2c(NCCCNC3CCCCC3)ccnc2c1`
Ans. 0 (no)

Pending molecule:
Qu. For `Cc1cccc(NC(=O)c2sc3nc4c(cc3c2N)CN(Cc2ccccc2)CC4)c1C` , is the recorded growth below the cut-off of 90%?
Ans. 1 (yes)
